Source of measurements: ChEMBL document CHEMBL3414569

# Experiment summary: Retention time of the compound
# Format: physicochemical
Lab note - cut at 8 min for Retention_time: true (1) if strictly below, false (0) if not.

Is the reported Retention_time for `CCOC(=O)[C@H](CCCNC(=N)N)NC(=O)COc1cc2oc3cc(OCC(=O)N[C@@H](CCCNC(=N)N)C(=O)OCC)c(OC)c(CC=C(C)C)c3c(=O)c2c(O)c1CC=C(C)C` strictly below 8 min?
false (0)

Criterion: Retention_time strictly below 8 min. Is it met by `COc1c(OCC(=O)N[C@@H](CCCNC(=N)N)C(=O)OC(C)(C)C)cc2oc3cc(OCC(=O)N[C@@H](CCCNC(=N)N)C(=O)OC(C)(C)C)c(CC=C(C)C)c(O)c3c(=O)c2c1CC=C(C)C` ?
false (0)

Could you please tell me whether Retention_time recorded for COC(=O)C(CCCNC(=N)N)NC(=O)C(CCCNC(=N)N)NC(=O)COc1cc2oc3cc(OCC(=O)NC(CCCNC(=N)N)C(=O)NC(CCCNC(=N)N)C(=O)OC)c(OC)c(CC=C(C)C)c3c(=O)c2c(O)c1CC=C(C)C (stereo not given) is less than 8 min?
true (1)

Does this compound meet the criterion Retention_time < 8 min? `COc1c(OCC(=O)N[C@@H](CCCNC(=N)N)C(N)=O)cc2oc3cc(OCC(=O)N[C@@H](CCCNC(=N)N)C(N)=O)c(CC=C(C)C)c(O)c3c(=O)c2c1CC=C(C)C`
true (1)

----------
# Experiment summary: Induction of hemolysis in New Zealand white rabbit RBC after 1 hr
# Format: cell-based, Oryctolagus cuniculus, Erythrocyte
# Experimental conditions: New Zealand white, red blood cells (RBC)
Would you mind telling me the reported HC50 at 1 h of each entry?

Given item `COC(=O)[C@H](CCCNC(=N)N)NC(=O)COc1cc2oc3cc(OCC(=O)N[C@@H](CCCNC(=N)N)C(=O)OC)c(OC)c(CC=C(C)C)c3c(=O)c2c(O)c1CC=C(C)C` , the value recorded as its HC50 at 1 h is 232 µg/mL

Entry COC(=O)C(CCCNC(=N)N)NC(=O)C(CCCNC(=N)N)NC(=O)COc1cc2oc3cc(OCC(=O)NC(CCCNC(=N)N)C(=O)NC(CCCNC(=N)N)C(=O)OC)c(OC)c(CC=C(C)C)c3c(=O)c2c(O)c1CC=C(C)C (stereo not given) ; HC50 at 1 h = 277 µg/mL

Input COC(=O)C(CCCCN)NC(=O)COc1cc2oc3cc(OCC(=O)NC(CCCCN)C(=O)OC)c(OC)c(CC=C(C)C)c3c(=O)c2c(O)c1CC=C(C)C (stereo not given) . Output HC50 at 1 h: 39 µg/mL

molecule `CCN(CC)CCCCOc1cc2oc3cc(OCCCCN(CC)CC)c(OC)c(CC=C(C)C)c3c(=O)c2c(O)c1CC=C(C)C` , HC50 at 1 h observed: 20 µg/mL

For record `COc1c(OCC(=O)N[C@@H](CCCNC(=N)N)C(=O)OC(C)(C)C)cc2oc3cc(OCC(=O)N[C@@H](CCCNC(=N)N)C(=O)OC(C)(C)C)c(CC=C(C)C)c(O)c3c(=O)c2c1CC=C(C)C` the listed HC50 at 1 h is 79 µg/mL

Documented HC50 at 1 h of COC(=O)C(Cc1cnc[nH]1)NC(=O)COc1cc2oc3cc(OCC(=O)NC(Cc4cnc[nH]4)C(=O)OC)c(OC)c(CC=C(C)C)c3c(=O)c2c(O)c1CC=C(C)C (stereo not given) : > 400 µg/mL

GET /value?item= `N=C(N)NCCCCC(=O)Nc1cc(C(F)(F)F)cc(NC(=O)c2cc(C(=O)Nc3cc(C(F)(F)F)cc(NC(=O)CCCCNC(=N)N)c3O[C@@H]3CCNC3)ncn2)c1O[C@@H]1CCNC1` &field=HC50 at 1 h returns 175 µg/mL

GET /value?item= `COc1c(OCC(=O)O)cc2oc3cc(OCC(=O)O)c(CC=C(C)C)c(O)c3c(=O)c2c1CC=C(C)C` &field=HC50 at 1 h returns > 400 µg/mL

Documented HC50 at 1 h of `CCOC(=O)[C@H](CCCNC(=N)N)NC(=O)COc1cc2oc3cc(OCC(=O)N[C@@H](CCCNC(=N)N)C(=O)OCC)c(OC)c(CC=C(C)C)c3c(=O)c2c(O)c1CC=C(C)C` : 56 µg/mL

Just so you know, measured HC50 at 1 h for `COc1c(OCC(=O)N[C@@H](CCCNC(=N)N)C(N)=O)cc2oc3cc(OCC(=O)N[C@@H](CCCNC(=N)N)C(N)=O)c(CC=C(C)C)c(O)c3c(=O)c2c1CC=C(C)C` came out at 128 µg/mL
